Assay: Dye conversion (MTT formazan) assay of drug-induced cytotoxicity
Assay type: cell-based
Conditions: mouse, sc-1 cells; 1 × 10^-3 M; read-out: % of Control
Protocol: A dye conversion assay to determine drug-induced cytotoxicity was performed. This assay is based on the conversion of MTT to a formazan product in living cells. This conversion results in a color change which can be detected spectrophotometrically. […] The culture was incubated overnight and the following morning the optical density (O.D.) was read at 570 nm wavelength on a Perkin-Elmer spectrophotometer. […] O.D. reading compared to the control cell O.D. reading was calculated. […]
observationType: viability at 72 h, 1000 µM (%)
Respond with the bare value in %.

Problem: Recorded viability at 72 h, 1000 µM of "O=[N+]([O-])c1ccccc1S(=O)(=O)c1ccccc1" , please.
Solution: 55

Problem: Recorded viability at 72 h, 1000 µM of "Cc1ccc(S(=O)(=O)c2ccccc2[N+](=O)[O-])cc1" , please.
Solution: 69
